- tgt: T1, P8-AA
- T1 chain: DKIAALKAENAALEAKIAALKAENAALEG
- run_description: two-hybrid library CCmax;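 also: natural log of median RNA to DNA barcode read ratio; higher means stronger binding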
measure_name: interaction score

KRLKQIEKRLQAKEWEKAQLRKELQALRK [4H_APH4]	-2.2
DKIAALKAENAALEAKIAALKAENAALEG [P8-AA]	-1.57
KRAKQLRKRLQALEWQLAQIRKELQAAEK [4H_APH3]	-1.41
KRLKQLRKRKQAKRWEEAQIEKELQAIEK [4H_APH2]	-1.79
